Biological target: T1, human CD276 protein (human, UniProt Q5ZPR3 29-534)
T1 construct: whole, on cells; for SKOV3 and the other cancer lines the protein is the cells' own; also called B7-H3; B7H3
T1 sequence (looked up): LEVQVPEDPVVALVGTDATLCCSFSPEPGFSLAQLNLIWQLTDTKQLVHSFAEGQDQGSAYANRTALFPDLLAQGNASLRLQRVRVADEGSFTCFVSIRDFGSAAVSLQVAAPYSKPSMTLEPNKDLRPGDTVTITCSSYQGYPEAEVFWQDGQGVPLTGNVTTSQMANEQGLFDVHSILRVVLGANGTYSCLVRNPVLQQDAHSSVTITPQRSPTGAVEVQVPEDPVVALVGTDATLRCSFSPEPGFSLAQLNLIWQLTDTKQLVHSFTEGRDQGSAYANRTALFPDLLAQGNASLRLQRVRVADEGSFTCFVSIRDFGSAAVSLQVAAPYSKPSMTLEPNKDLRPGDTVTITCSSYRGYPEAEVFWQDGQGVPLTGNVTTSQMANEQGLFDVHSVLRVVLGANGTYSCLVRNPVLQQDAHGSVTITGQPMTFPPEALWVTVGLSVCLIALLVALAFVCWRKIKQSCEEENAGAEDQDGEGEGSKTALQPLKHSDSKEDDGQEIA
Test: FACS on SKOV3 cells
MEASUREMENT_NAME: EC50
Record the result as a number with its unit.

Look up EC50 of 20-A2-D10-G8 (human IgG1 chimeric antibody) (antibody, V domains shown, human IgG1 chimeric antibody of the mouse clone) VH: QVQLQQSGPELVRPGVSVKISCKGSGYTFTDYTMHWVKESHAQSLEWIGVISTYYGNTNYNQNFKGKATLTVDKSSSTAYMELAGLTSEDSAIYYCARASYGSGYGPYYWYFDVWGAGTTVTVSS VL: DIQMTQSPASLFASVGETVTITCRASEKIYSYLAWYFQKQGKSPQFLVYNANALAEGVPSRFSGSGSGTQFSLKIKSLQPEDFGTYYCQHHYGSPVTFGAGSKLELK and report it.
0.791 mg/L

Look up EC50 of 10-B9-D10-A12 (human IgG1 chimeric antibody) (antibody, V domains shown, human IgG1 chimeric antibody of the mouse clone) VH: EVQLQESGPELVRPGVSVKISCKGSGYTFTDYTMHWVKLSHAKSLEWIGVISTYYGNTNYNQKFKGKATLTVDKSSSTAYMELARLTSEDSAIYYCARASYGSGYGPYYWYFDVWGAGTTVTVSS VL: DIQMTQSPASLFASVGETVTITCRASEKIYSYLAWYFQKQGKSPQFLVYNANALAEGVPSRFSGSGSGTQFSLKINSLQPEDFGTYYCQHHYGTPVTFGAGSKLELK and report it.
2.08 mg/L

Look up EC50 of 10-G6-C4-B2 (human IgG1 chimeric antibody) (antibody, V domains shown, human IgG1 chimeric antibody of the mouse clone) VH: EVQLVESGGGLVQPGGSLRLSCATSGFTLSDYYMSWVRQPPGKAPEWLGFMRNKANGYTTEYSASVRGRFTISRDTSQSIIYLQMNTLRAEDGATYYCVRDRDGRPFAYWGQGTLVTVSA VL: DIVMTQSPSSLTVTAGEKVTMSCKSSQSLLNSINQKNFLTWYQQKPGQPPKLLIYWASTRESGVPDRFTGSGSGTDFTLTISSVQAEDLAIYYCQNDYTYPLTFGTGTKLELK and report it.
0.822 mg/L

Look up EC50 of 18-F9-D8-G7 (human IgG1 chimeric antibody) (antibody, V domains shown, human IgG1 chimeric antibody of the mouse clone) VH: EVQLQQSGPELVRPGVSVKISCKGSGYTFTDYAMHWVKQSHAQSLEWIGIINTYSGDTNYNQKFKGKATMTVDKSSSTAYMGLARLTSEDSAIFYCARGGGNYPYWYFDVWGAGTTVTVSS VL: ENVLTQSPAIMSASPGEKVTMTCRASSSVSSSYLHWYQQKSGDSPKLWIYSTSNLASGVPARFSGSGSGTSYSLTISSVEAEDAATYYCQQFSVYPLTFGAGTKLEIK and report it.
0.286 mg/L

Look up EC50 of 3-C2-C3-E7 (human IgG1 chimeric antibody) (antibody, V domains shown, human IgG1 chimeric antibody of the mouse clone) VH: EVQLQQSGPELVKPGASVKISCKTSGYTFTENTMHWVKQSHGKRLEWIGGINPNTGGTTYNQKFKGKATLTVDKSSSTAYMELRSLTSEDSAVYYCARRGTNWEHWYFDVWGAGTTVTVSS VL: QIVLTQSPAIMSASPGEKVTMTCSASSSVSYMHWYQQKSGTSPKRWIYDTSKLASGVPARFSGSGSGTSYSLTISSMEAEDAATYYCQQWSSNPLTFGAGTKLELK and report it.
1.43 mg/L

Look up EC50 of 11-G10-B4-B11 (human IgG1 chimeric antibody) (antibody, V domains shown, human IgG1 chimeric antibody of the mouse clone) VH: DVQLQESGPGLVKPSQSLSLTCTVTGYSITSDYAWNWIRQFPGNKLEWMGYISYSGSTSYNPSLKSRISITRDTSKNQFFLQLNSVTTEDTATYYCARGGPWFAYWGQGTLVTVSA VL: DVVMTQTPLSLPVSLGDQASISCRSSQSLVHSNGNTYLHWYLQKPGQSPKLLIYKVSNRFSGVPDRFSGSGSGTDFTLKISRVEAEDLGVYFCSQSTHVPFTFGSGTKLEIK and report it.
0.536 mg/L

Look up EC50 of 27-E7-D8-C7 (human IgG1 chimeric antibody) (antibody, V domains shown, human IgG1 chimeric antibody of the mouse clone) VH: EVQLQESGPELVRPGVSVKISCKGSGYTFTDYAMHWVKQSHAKSLEWIGVINTYSDNTNYNRKFKGKATMTVDKSSSTAYMELARLTSEDSAIYYCARGLLLRSQLGVYFDYWGQGTTLTVSS VL: QIVLSQSPAILSASPGEKVTMTCRASSSVSYMHWYQQKPGSSPKPWIYATSNLASGVPARFSGSGSGTSYSLTISRVEAEDAATYYCQQWSSNPWTFGGGTKLEIK and report it.
0.542 mg/L

The measurements presented in this section are drawn from patent US20240400689A1.
